Target: histamine receptor H1 (Homo sapiens, UniProt P35367)
Sequence (P35367 whole entry): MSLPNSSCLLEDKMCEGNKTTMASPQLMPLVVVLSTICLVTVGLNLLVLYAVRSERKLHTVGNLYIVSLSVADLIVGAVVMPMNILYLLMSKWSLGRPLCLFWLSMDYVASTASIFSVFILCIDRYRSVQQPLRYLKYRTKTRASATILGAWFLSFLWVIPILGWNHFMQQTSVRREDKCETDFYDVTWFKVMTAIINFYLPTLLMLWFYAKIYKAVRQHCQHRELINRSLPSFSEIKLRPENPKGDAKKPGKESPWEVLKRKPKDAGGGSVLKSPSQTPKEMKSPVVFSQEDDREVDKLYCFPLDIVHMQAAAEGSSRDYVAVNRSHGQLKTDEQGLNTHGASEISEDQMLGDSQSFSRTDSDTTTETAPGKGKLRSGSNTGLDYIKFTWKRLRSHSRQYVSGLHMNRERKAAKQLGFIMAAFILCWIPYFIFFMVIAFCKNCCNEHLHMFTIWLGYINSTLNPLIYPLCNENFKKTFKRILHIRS
Test: Histamine H1 radioligand binding ([3H]Pyrilamine)
Conditions: read-out: Histamine Binding (1 μM) H1, percent inhibition of specific binding, 1 μM
Where inhibition at 1 µM equals or exceeds 50%, the correct label is TRUE; where it does not, the label is FALSE.

Cc1ccc2c(c1)c1c(n2C#Cc2ccoc2)CCN(C)C1 = TRUE
CCC(O)(Cn1c2c(c3cc(Cl)ccc31)CN(C)CC2)c1ccc(F)cc1 (centres unmarked) = TRUE
C=C(Cn1c2c(c3cc(Cl)ccc31)CN(C)CC2)c1ccc(C)nc1 = TRUE

stdin: Does Cc1ccc2c(c1)c1c(n2CC(O)(c2ccccc2)c2ccccc2)CCN(C)C1 have a reported inhibition at 1 µM of at least 50%?
stdout: FALSE

stdin: Quick check: does C/C(=C\n1c2c(c3cc(Cl)ccc31)CN(C)CC2)c1ccc(F)c(F)c1 have inhibition at 1 µM greater than or equal to 50%?
stdout: TRUE

stdin: Is inhibition at 1 µM at least 50%? Consider C/C=C/C(=C\n1c2c(c3cc(Cl)ccc31)CN(C)CC2)c1ccc(F)cc1
stdout: TRUE

stdin: Confirm if inhibition at 1 µM reported for the compound CN1CCc2c(c3cc(Cl)ccc3n2C#Cc2ccc(C(F)(F)F)nc2)C1 is 50% or above.
stdout: FALSE

stdin: Decide: inhibition at 1 µM of Cc1ccc2c(c1)c1c(n2CC(C)(O)c2cnccn2)CCN(C)C1 (centres unmarked) >= 50%?
stdout: FALSE

stdin: Check if inhibition at 1 µM >= 50% (inclusive). Item: COc1ccc(C(C)(O)Cn2c3c(c4cc(Cl)ccc42)CN(C)CC3)cc1 (centres unmarked)
stdout: FALSE

stdin: Confirm if inhibition at 1 µM reported for the compound Cc1ccc2c(c1)c1c(n2C#Cc2cscn2)CCN(C)C1 is 50% or above.
stdout: TRUE

stdin: Decide: inhibition at 1 µM of Cc1ccc2c(c1)c1c(n2C#Cc2ccc(Cl)cc2)CCN(C)C1 >= 50%?
stdout: FALSE

Origin of values: patent US8906925B2
